assay: gradient 5% acetonitrile 3 min, to 50% in 2 min, to 85% in 15 min, held 3 min, 100 µL/min; conditions: column: Zorbax Extend-C18 2.1 x 50 mm; eluents: water / acetonitrile, 0.1% formic acid
quantity.name: RP-LC retention time (s)

Worked examples, 5 molecules total:
Cc1sc(NC(=O)c2ccccc2)c(C(=O)NCCN(C)C)c1C; 677
CC1(C(=O)N2CCN(Cc3ccc4c(c3)OCO4)CC2)CCCCC(=O)N1 (centres undefined); 576
CCOC(=O)c1nc(Nc2ccc(C)cc2Cl)c2ccccc2n1; 929
Cc1nc(-c2cc(S(=O)(=O)N3CCN(c4cccc(C)c4C)CC3)c(C)s2)cs1; 1370
O=C(Cn1c(CN2CCCCCC2)nc2ccccc21)N1CCCCCC1; 678

[1] CC(=O)N1CCCC(c2nc(CNC(=O)C3CCC3)cs2)C1 (centres undefined)
[2] O=c1c2ccccc2ccc2ccccc12
Lower value for measured RP-LC retention time? Options: 1 , 2 // output: label of the selected item 1
(1: 631 s, 2: 1120 s)
